target: WT IDH1 (Homo sapiens, UniProt O75874); assay: Wild-type IDH1 enzyme assay, NADPH production by diaphorase/resazurin coupled detection; format: biochemical; conditions: 60 min preincubation with enzyme/NADP, 45 min reaction, room temperature
Sequence (O75874 whole entry): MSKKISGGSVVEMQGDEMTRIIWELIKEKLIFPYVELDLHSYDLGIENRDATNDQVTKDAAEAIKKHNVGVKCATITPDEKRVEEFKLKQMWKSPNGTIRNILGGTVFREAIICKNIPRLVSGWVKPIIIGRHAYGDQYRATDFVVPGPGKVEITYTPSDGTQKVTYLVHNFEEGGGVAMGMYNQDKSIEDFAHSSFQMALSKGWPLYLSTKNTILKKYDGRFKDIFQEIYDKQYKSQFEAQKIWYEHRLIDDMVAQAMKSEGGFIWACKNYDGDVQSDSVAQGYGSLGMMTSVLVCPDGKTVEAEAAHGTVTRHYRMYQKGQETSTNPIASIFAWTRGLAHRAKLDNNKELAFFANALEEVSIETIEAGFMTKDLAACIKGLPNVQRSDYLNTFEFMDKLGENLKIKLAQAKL
testReadout: IC50 (µM)

>>> valuereported("C=CC(=O)Nc1ccc(Nc2ccc([C@H](C)Nc3nccc(N4C(=O)OC[C@@H]4C(C)C)n3)cc2)nc1")
8.52
>>> valuereported("C=CC(=O)N1CCN(Cc2ccc([C@H](C)Nc3nccc(N4C(=O)OC[C@@H]4C(C)C)n3)cc2)CC1")
9.46

----------
biological target: IDH1 (R132C) (Homo sapiens, UniProt O75874, R132C); experiment: IDH1 R132C enzyme assay, NADPH depletion by diaphorase/resazurin coupled detection; type: biochemical; conditions: 60 min preincubation with enzyme/NADPH, 45 min reaction, room temperature
Sequence (O75874 whole entry R132C): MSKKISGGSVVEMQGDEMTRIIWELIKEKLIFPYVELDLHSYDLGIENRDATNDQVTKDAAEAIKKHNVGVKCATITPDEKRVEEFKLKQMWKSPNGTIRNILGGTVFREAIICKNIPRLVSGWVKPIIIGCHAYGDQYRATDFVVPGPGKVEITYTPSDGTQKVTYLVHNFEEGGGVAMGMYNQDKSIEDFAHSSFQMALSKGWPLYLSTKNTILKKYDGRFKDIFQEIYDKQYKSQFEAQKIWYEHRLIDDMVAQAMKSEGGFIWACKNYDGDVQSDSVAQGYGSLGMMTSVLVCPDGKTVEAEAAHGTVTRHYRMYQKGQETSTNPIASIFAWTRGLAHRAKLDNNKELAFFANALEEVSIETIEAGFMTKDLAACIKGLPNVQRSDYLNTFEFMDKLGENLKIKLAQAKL
testReadout: IC50 (nM)

>>> valuereported("C=CC(=O)Nc1ccc(Nc2ccc([C@H](C)Nc3nccc(N4C(=O)OC[C@@H]4C(C)C)n3)cc2)cc1")
7.55
>>> valuereported("C=CC(=O)N1CCN(Cc2ccc([C@H](C)Nc3nccc(N4C(=O)OC[C@@H]4C(C)C)n3)cc2)CC1")
1.61
>>> valuereported("C=CC(=O)N1CCN(Cc2ccc([C@H](C)Nc3nc(N4C(=O)OC[C@@H]4C(C)C)c4sccc4n3)cc2)CC1")
2.61
>>> valuereported("C=CC(=O)Nc1ccc(N(C)c2cnc(C(C)Nc3nccc(N4C(=O)OC[C@@H]4C(C)C)n3)nc2)cc1 (stereo partly shown)")
198
>>> valuereported("C=CC(=O)Nc1cccc(Nc2ccc([C@H](C)Nc3nccc(N4C(=O)OC[C@@H]4C(C)C)n3)cc2)c1")
4.67
>>> valuereported("C=CC(=O)Nc1cccc(-c2cnc(C(C)Nc3nccc(N4C(=O)OC[C@@H]4C(C)C)n3)nc2)c1 (stereo partly shown)")
285
>>> valuereported("C=CC(=O)Nc1ccc(Nc2ccc([C@H](C)Nc3nccc(N4C(=O)OC[C@@H]4C(C)C)n3)cc2)nc1")
3.35
